# assayed.target: 141 kinases
# experimental.details: ICKP panel radiometric kinase profiling (summary)
# experimental.parameters: radioactive filter-binding assay; kinases inhibited more strongly than MELK in the ICKP panel; read-out: IC50 values of potential off-target kinases
experimental.endpoint: IC50

Challenge: Consider the compound CN(C)C[C@H]1CC[C@H](N2C(=O)NCc3cnc4ccc(-c5cc(Cl)c(O)c(Cl)c5)cc4c32)CC1 and give its measured IC50.
Response given: 42 to 109 nM

----------
The reader will find reported pIC50 values listed item by item below.
# assayed.target: PIK3CA (Homo sapiens, UniProt P42336)
# Sequence (P42336 whole entry): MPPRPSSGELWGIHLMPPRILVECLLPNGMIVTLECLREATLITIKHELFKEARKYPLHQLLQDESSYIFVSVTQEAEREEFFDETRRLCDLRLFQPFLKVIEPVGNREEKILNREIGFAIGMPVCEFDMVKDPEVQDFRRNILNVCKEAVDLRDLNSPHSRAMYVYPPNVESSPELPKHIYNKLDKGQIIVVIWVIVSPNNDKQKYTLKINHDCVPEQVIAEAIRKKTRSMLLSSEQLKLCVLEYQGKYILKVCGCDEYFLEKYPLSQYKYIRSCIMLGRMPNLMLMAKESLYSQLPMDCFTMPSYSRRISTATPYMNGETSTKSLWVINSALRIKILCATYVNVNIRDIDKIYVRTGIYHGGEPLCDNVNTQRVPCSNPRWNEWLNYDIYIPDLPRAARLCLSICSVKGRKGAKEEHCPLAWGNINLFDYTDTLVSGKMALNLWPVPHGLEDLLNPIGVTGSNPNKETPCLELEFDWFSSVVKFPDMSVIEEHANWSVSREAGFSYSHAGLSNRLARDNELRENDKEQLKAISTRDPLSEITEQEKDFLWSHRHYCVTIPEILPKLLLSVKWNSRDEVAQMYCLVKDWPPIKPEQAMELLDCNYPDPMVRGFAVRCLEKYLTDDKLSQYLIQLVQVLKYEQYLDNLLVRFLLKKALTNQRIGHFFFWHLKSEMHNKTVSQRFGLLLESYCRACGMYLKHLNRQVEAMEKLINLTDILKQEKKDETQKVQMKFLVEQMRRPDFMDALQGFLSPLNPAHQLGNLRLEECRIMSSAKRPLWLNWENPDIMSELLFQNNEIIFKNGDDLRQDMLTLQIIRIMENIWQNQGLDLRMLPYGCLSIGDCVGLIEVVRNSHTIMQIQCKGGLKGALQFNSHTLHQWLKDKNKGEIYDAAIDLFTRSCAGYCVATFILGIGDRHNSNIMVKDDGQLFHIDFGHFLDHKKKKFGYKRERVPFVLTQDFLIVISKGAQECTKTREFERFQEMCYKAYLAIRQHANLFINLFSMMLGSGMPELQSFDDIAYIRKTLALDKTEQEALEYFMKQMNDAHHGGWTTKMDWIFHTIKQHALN
# Sequence (P27986 whole entry partner): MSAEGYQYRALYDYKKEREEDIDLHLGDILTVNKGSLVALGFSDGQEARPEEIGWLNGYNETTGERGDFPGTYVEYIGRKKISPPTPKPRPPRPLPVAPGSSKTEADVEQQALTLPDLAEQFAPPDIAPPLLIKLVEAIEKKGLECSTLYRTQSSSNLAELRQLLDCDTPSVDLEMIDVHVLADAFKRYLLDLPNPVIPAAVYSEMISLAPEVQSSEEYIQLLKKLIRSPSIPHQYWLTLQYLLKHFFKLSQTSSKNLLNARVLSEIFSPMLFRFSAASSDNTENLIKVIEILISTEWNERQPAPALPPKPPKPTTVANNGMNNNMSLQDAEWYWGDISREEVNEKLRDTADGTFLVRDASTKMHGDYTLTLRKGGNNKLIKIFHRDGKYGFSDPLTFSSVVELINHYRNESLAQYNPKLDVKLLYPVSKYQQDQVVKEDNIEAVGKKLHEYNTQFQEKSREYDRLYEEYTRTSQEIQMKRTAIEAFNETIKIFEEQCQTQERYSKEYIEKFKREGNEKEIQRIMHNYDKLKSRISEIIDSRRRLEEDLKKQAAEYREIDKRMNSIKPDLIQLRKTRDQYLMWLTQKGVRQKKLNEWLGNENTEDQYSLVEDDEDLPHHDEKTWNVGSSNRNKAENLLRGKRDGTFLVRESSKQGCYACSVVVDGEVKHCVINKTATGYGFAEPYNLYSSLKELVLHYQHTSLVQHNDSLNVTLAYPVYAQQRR
// scale note: pIC50 = -log10(conc_M); give the bare number

> print(dat)
                                 mol.smiles  recorded.result
1  CC(=O)c1cnc2ccc(-c3cc(Cl)c(O)c(Cl)c3)nc2c1N[C@H]1CC[C@H](CN(C)C)CC1             7.18

Consider the additional compound presented here.
Challenge: # get_value(readout= pIC50, system= PIK3CA (Homo sapiens, UniProt P42336)) for CN(C)C[C@H]1CC[C@H](N2C(=O)NCc3cnc4ccc(-c5cc(Cl)c(O)c(Cl)c5)cc4c32)CC1
Response given: 6.02

----------
# assayed.target: PIM1 (Homo sapiens)
# Sequence (P11309 whole entry, species assumed): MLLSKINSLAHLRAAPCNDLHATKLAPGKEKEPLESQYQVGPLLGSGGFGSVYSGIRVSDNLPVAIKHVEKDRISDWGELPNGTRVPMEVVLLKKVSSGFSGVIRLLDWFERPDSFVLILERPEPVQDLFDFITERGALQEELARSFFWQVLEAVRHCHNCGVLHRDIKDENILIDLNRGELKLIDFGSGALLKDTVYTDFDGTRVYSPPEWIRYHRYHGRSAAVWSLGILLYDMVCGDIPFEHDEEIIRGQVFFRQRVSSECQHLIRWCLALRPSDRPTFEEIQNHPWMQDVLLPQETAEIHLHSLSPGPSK
experimental.endpoint: pIC50
// scale note: pIC50 = -log10(conc_M); give the bare number

Challenge: Consider the molecule CN(C)C[C@H]1CC[C@H](N2C(=O)NCc3cnc4ccc(-c5cc(Cl)c(O)c(Cl)c5)cc4c32)CC1 [HTH-01-091] and give its measured pIC50.
Response given: 7.22

----------
# assayed.target: SmMLCK (Homo sapiens)
experimental.endpoint: IC50
The reply should consist of the numeric value with the unit placed after it.

Challenge: # get_value(readout= IC50, system= SmMLCK (Homo sapiens)) for CN(C)C[C@H]1CC[C@H](N2C(=O)NCc3cnc4ccc(-c5cc(Cl)c(O)c(Cl)c5)cc4c32)CC1
Response given: 109 nM

----------
# assayed.target: MELK (Homo sapiens, UniProt Q14680)
# Sequence (Q14680 whole entry): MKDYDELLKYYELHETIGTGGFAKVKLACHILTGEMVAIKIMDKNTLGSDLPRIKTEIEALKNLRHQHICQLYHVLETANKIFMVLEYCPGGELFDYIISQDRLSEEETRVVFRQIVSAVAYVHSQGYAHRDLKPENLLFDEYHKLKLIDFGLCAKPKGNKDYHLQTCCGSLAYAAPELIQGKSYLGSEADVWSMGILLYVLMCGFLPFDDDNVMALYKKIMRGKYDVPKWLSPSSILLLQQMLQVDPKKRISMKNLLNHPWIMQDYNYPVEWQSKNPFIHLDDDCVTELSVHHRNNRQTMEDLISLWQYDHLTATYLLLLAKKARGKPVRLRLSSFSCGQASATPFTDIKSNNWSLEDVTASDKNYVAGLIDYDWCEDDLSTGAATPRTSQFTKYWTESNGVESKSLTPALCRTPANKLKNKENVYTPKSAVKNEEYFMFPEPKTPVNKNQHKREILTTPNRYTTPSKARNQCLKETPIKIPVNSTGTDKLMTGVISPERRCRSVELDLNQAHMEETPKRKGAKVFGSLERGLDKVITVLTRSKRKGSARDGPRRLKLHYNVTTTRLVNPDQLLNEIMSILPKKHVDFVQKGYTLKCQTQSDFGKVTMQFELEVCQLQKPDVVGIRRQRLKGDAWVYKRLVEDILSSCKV
# experimental.details: Z’-LYTE enzymatic assay
# Format: biochemical
# experimental.parameters: Biochemical IC50 MELK, Z’-LYTE assay at [ATP]=apparent Km
experimental.endpoint: IC50
The reply should consist of the numeric value with the unit placed after it.

Challenge: Consider the molecule CN1CCN(c2ccc(-n3cc(-c4ccncc4OCC4CCNCC4)cn3)cc2)CC1 and give its measured IC50.
Response given: 11.9 nM

----------
# assayed.target: RIPK2 (Homo sapiens, UniProt O43353)
# Sequence (O43353 whole entry, species assumed): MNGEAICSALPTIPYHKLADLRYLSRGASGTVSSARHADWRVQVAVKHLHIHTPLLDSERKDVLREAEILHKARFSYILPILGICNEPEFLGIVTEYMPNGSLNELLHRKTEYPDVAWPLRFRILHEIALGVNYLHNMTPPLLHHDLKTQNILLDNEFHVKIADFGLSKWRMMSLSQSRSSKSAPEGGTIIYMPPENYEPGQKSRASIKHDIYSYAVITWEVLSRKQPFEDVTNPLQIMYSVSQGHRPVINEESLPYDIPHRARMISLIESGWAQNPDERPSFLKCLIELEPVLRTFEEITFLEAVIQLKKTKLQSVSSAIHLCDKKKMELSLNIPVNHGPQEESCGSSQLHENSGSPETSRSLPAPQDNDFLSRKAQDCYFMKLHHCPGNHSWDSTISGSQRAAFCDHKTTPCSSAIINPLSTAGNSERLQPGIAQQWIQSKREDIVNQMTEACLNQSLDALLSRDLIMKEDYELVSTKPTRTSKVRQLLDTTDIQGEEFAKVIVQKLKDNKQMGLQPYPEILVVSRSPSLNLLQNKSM
experimental.endpoint: pIC50
// scale note: pIC50 = -log10(conc_M); give the bare number

Challenge: # get_value(readout= pIC50, system= RIPK2 (Homo sapiens, UniProt O43353)) for CN(C)C[C@H]1CC[C@H](N2C(=O)NCc3cnc4ccc(-c5cc(Cl)c(O)c(Cl)c5)cc4c32)CC1 [HTH-01-091]
Response given: 7.37

----------
# System: MDA-MB-468 (second source)
# experimental.details: Cell proliferation assay (CellTiter-Glo)
# experimental.parameters: Homo sapiens, MDA-MB-468, 168 h, read-out: 7-day antiproliferative IC50
experimental.endpoint: IC50 (µM)
Give the quantity in µM, number only.

> print(dat)
                                 mol.smiles              assayed.target  experimental.endpoint  recorded.result
1  CC(=O)c1cnc2ccc(-c3cc(Cl)c(O)c(Cl)c3)nc2c1N[C@H]1CC[C@H](CN(C)C)CC1  MDA-MB-468 (second source)                   IC50            0.033
2  CC1(C)C(=O)N([C@H]2CCc3c(O)cccc32)c2nc(Nc3cccc(CN4CCCC4)c3)ncc21  MDA-MB-468 (second source)                   IC50             0.91
3  CN1CCN(c2ccc(-n3cc(-c4ccncc4OCC4CCNCC4)cn3)cc2)CC1  MDA-MB-468 (second source)                   IC50              8.4

Consider the additional compound presented here.
Challenge: Consider the compound CN(C)C[C@H]1CC[C@H](N2C(=O)NCc3cnc4ccc(-c5cc(Cl)c(O)c(Cl)c5)cc4c32)CC1 and give its measured IC50.
Response given: 10.7

----------
# System: T-47D
# experimental.details: Cell proliferation assay (CellTiter-Glo)
# experimental.parameters: Homo sapiens, T47D, 72 h, read-out: 3-day antiproliferative IC50
experimental.endpoint: pIC50
// scale note: pIC50 = -log10(conc_M); give the bare number

As a guide, the following entries are already answered.
> print(dat)
                                   compound  recorded.result
1  CN(C)C[C@H]1CC[C@H](N2C(=O)NCc3cnc4ccc(-c5cc(Cl)c(O)c(Cl)c5)cc4c32)CC1 [HTH-01-091]             5.41
2  CC1(C)C(=O)N([C@H]2CCc3c(O)cccc32)c2nc(Nc3cccc(CN4CCCC4)c3)ncc21 [MRT199665]             5.23

Consider the additional compound presented here.
Challenge: Consider the compound CC(=O)c1cnc2ccc(-c3cc(Cl)c(O)c(Cl)c3)nc2c1N[C@H]1CC[C@H](CN(C)C)CC1 [OTSSP167] and give its measured pIC50.
Response given: 6.97

----------
# System: HCC70
# experimental.details: Cell proliferation assay (CellTiter-Glo)
# experimental.parameters: Homo sapiens, HCC70, 72 h, read-out: 3-day antiproliferative IC50
The reader will find reported IC50 values listed item by item below.
Give the quantity in µM, number only.

As a guide, the following entries are already answered.
> print(dat)
                                 mol.smiles  recorded.result
1  CN(C)C[C@H]1CC[C@H](N2C(=O)NCc3cnc4ccc(-c5cc(Cl)c(O)c(Cl)c5)cc4c32)CC1              8.8
2  CC(=O)c1cnc2ccc(-c3cc(Cl)c(O)c(Cl)c3)nc2c1N[C@H]1CC[C@H](CN(C)C)CC1            0.034
3  CN1CCN(c2ccc(-n3cc(-c4ccncc4OCC4CCNCC4)cn3)cc2)CC1             5.99

Challenge: Consider the compound CC1(C)C(=O)N([C@H]2CCc3c(O)cccc32)c2nc(Nc3cccc(CN4CCCC4)c3)ncc21 and give its measured IC50.
Response given: 0.39

----------
# assayed.target: MELK (Homo sapiens)
# experimental.details: Z’-LYTE enzymatic assay
# Type: biochemical
# experimental.parameters: Note: MELK IC50, note column of Table 3
experimental.endpoint: IC50 (nM)
Give the quantity in nM, number only.

Challenge: # get_value(readout= IC50, system= MELK (Homo sapiens)) for CN1CCN(c2ccc(-n3cc(-c4ccncc4OCC4CCNCC4)cn3)cc2)CC1
Response given: 11.9

----------
The reader will find reported IC50 values listed item by item below.
# System: BT-549
# experimental.details: Cell proliferation assay (CellTiter-Glo)
# experimental.parameters: Homo sapiens, BT-549, 168 h, read-out: 7-day antiproliferative IC50
Give the quantity in nM, number only.

> print(dat)
                                 mol.smiles  experimental.endpoint  recorded.result
1  CN1CCN(c2ccc(-n3cc(-c4ccncc4OCC4CCNCC4)cn3)cc2)CC1                   IC50             4980

Challenge: Consider the compound CN(C)C[C@H]1CC[C@H](N2C(=O)NCc3cnc4ccc(-c5cc(Cl)c(O)c(Cl)c5)cc4c32)CC1 and give its measured IC50.
Response given: 2820

Challenge: Consider the compound CC1(C)C(=O)N([C@H]2CCc3c(O)cccc32)c2nc(Nc3cccc(CN4CCCC4)c3)ncc21 and give its measured IC50.
Response given: 310

Challenge: Consider the compound CC(=O)c1cnc2ccc(-c3cc(Cl)c(O)c(Cl)c3)nc2c1N[C@H]1CC[C@H](CN(C)C)CC1 and give its measured IC50.
Response given: 9

----------
# assayed.target: DYRK3 (Homo sapiens, UniProt O43781)
# Sequence (O43781 whole entry, species assumed): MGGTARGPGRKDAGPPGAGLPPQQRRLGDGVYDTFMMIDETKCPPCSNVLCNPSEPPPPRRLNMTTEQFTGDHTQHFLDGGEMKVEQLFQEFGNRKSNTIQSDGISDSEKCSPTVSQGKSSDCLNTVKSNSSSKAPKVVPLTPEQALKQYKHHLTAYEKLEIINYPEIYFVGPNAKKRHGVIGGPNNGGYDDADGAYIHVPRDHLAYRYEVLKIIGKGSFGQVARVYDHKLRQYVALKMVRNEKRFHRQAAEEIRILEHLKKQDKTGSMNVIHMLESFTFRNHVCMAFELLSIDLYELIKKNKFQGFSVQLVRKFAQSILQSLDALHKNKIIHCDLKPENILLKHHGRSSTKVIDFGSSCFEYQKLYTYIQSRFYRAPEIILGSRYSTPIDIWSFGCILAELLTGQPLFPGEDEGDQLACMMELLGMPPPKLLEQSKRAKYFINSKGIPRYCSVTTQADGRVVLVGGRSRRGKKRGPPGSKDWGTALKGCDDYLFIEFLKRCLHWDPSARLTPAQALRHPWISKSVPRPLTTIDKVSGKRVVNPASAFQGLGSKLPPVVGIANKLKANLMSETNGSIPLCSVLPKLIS
# experimental.details: ICKP radiometric kinase assay
# Format: biochemical
# experimental.parameters: radioactive filter-binding assay provided by the ICKP; read-out: Enzymatic IC50 DYRK3
experimental.endpoint: pIC50
// scale note: pIC50 = -log10(conc_M); give the bare number

Challenge: Consider the molecule CN(C)C[C@H]1CC[C@H](N2C(=O)NCc3cnc4ccc(-c5cc(Cl)c(O)c(Cl)c5)cc4c32)CC1 [HTH-01-091] and give its measured pIC50.
Response given: 7.38

----------
# assayed.target: MELK (Homo sapiens)
# experimental.details: Z’-LYTE enzymatic assay
# Type: biochemical
# experimental.parameters: Z’-LYTE assay at [ATP]=apparent Km; read-out: Biochemical IC50 MELK
experimental.endpoint: IC50 (nM)
Give the quantity in nM, number only.

> print(dat)
                                   compound       assayed.target  recorded.result
1  O=c1ccc2cnc3ccc(-c4ccc(O)cc4)cc3c2n1-c1ccc(N2CCNCC2)c(C(F)(F)F)c1 [JW-7-25-1]  MELK (Homo sapiens)                5

Consider the additional compound presented here.
Challenge: Consider the compound CN(C)C[C@H]1CC[C@H](N2C(=O)NCc3cnc4ccc(-c5cc(Cl)c(O)c(Cl)c5)cc4c32)CC1 [HTH-01-091] and give its measured IC50.
Response given: 10.5
